test system: HT-22; assay: Neuroprotective activity against mouse HT22 cells assessed as inhibition of glutamate-induced cell injury pretreated at 10 uM for 30 mins measured after 24 hrs by MTT assay; type: functional

{"COMPOUND_STRUCTURE": "COc1ccc2c(c1)c1ccccc1n2-c1ccc(C(C)(C)C)cc1", "inhibition at 10 µM (%)": 0}
{"COMPOUND_STRUCTURE": "Cc1ccc(-n2c3ccccc3c3ccc(-c4ccccc4)cc32)cc1", "inhibition at 10 µM (%)": 69}
{"COMPOUND_STRUCTURE": "Cc1ccc(-n2c3ccccc3c3ccccc32)nc1", "inhibition at 10 µM (%)": 0}
{"COMPOUND_STRUCTURE": "Cc1ccc(S(=O)(=O)n2c3ccccc3c3ccc4ccccc4c32)cc1", "inhibition at 10 µM (%)": 16}
{"COMPOUND_STRUCTURE": "Cc1ccc(S(=O)(=O)n2c3ccccc3c3ccc(-c4ccccc4)cc32)cc1", "inhibition at 10 µM (%)": 19}

###

test system: HT-22; experiment: Neuroprotective activity against mouse HT22 cells assessed as inhibition of HCA-induced cell injury pretreated at 3 uM for 30 mins measured after 24 hrs by MTT assay; assay type: functional
compounds and their reported inhibition at 3 µM

{"COMPOUND_STRUCTURE": "Cc1ccc(S(=O)(=O)n2c3ccccc3c3ccccc32)cc1", "TARGET_OR_TEST_SYSTEM": "HT-22", "inhibition at 3 µM [%]": 4}
{"COMPOUND_STRUCTURE": "Clc1ccc(-n2c3ccccc3c3ccccc32)cc1", "TARGET_OR_TEST_SYSTEM": "HT-22", "inhibition at 3 µM [%]": 0}
{"COMPOUND_STRUCTURE": "CC(C)(C)c1ccc(-n2c3ccccc3c3ccccc32)cc1", "TARGET_OR_TEST_SYSTEM": "HT-22", "inhibition at 3 µM [%]": 2}
{"COMPOUND_STRUCTURE": "COc1ccc2c(c1)c1ccccc1n2S(=O)(=O)c1ccc(C)cc1", "TARGET_OR_TEST_SYSTEM": "HT-22", "inhibition at 3 µM [%]": 0}
{"COMPOUND_STRUCTURE": "Brc1ccc(-n2c3ccccc3c3ccccc32)cc1", "TARGET_OR_TEST_SYSTEM": "HT-22", "inhibition at 3 µM [%]": 0}
{"COMPOUND_STRUCTURE": "CCCCn1c2ccccc2c2ccccc21", "TARGET_OR_TEST_SYSTEM": "HT-22", "inhibition at 3 µM [%]": 0}
{"COMPOUND_STRUCTURE": "COc1ccc2c3ccccc3n(S(=O)(=O)c3ccc(C)cc3)c2c1", "TARGET_OR_TEST_SYSTEM": "HT-22", "inhibition at 3 µM [%]": 0}
{"COMPOUND_STRUCTURE": "c1ccc2c(c1)c1ccccc1n2C1CCCCC1", "TARGET_OR_TEST_SYSTEM": "HT-22", "inhibition at 3 µM [%]": 7}
{"COMPOUND_STRUCTURE": "COc1ccc2c(c1)c1ccccc1n2-c1ccc(C(C)(C)C)cc1", "TARGET_OR_TEST_SYSTEM": "HT-22", "inhibition at 3 µM [%]": 0}
{"COMPOUND_STRUCTURE": "Cc1ccc(-n2c3ccccc3c3ccccc32)cc1", "TARGET_OR_TEST_SYSTEM": "HT-22", "inhibition at 3 µM [%]": 0}
{"COMPOUND_STRUCTURE": "Cc1ccc(-n2c3ccccc3c3ccccc32)nc1", "TARGET_OR_TEST_SYSTEM": "HT-22", "inhibition at 3 µM [%]": 0}
{"COMPOUND_STRUCTURE": "c1ccc(-n2c3ccccc3c3ccccc32)cc1", "TARGET_OR_TEST_SYSTEM": "HT-22", "inhibition at 3 µM [%]": 0}
{"COMPOUND_STRUCTURE": "Cc1ccc(-n2c3ccccc3c3ccc(-c4ccccc4)cc32)cc1", "TARGET_OR_TEST_SYSTEM": "HT-22", "inhibition at 3 µM [%]": 64}
{"COMPOUND_STRUCTURE": "Cc1ccc(-n2c3ccccc3c3ccc4ccccc4c32)cc1", "TARGET_OR_TEST_SYSTEM": "HT-22", "inhibition at 3 µM [%]": 0}
{"COMPOUND_STRUCTURE": "CN(C)c1ccc(-n2c3ccccc3c3ccccc32)cc1", "TARGET_OR_TEST_SYSTEM": "HT-22", "inhibition at 3 µM [%]": 0}
{"COMPOUND_STRUCTURE": "OCCCCn1c2ccccc2c2ccccc21", "TARGET_OR_TEST_SYSTEM": "HT-22", "inhibition at 3 µM [%]": 0}
{"COMPOUND_STRUCTURE": "COc1ccc(-n2c3ccccc3c3ccccc32)cc1", "TARGET_OR_TEST_SYSTEM": "HT-22", "inhibition at 3 µM [%]": 0}
{"COMPOUND_STRUCTURE": "Cc1ccc(S(=O)(=O)n2c3ccccc3c3ccc4ccccc4c32)cc1", "TARGET_OR_TEST_SYSTEM": "HT-22", "inhibition at 3 µM [%]": 18}

###

molecules and their reported inhibition at 10 µM
system: HT-22; test: Neuroprotective activity against mouse HT22 cells assessed as inhibition of glutamate-induced cell injury pretreated at 10 uM for 30 mins measured after 24 hrs by MTT assay; format: functional
READOUT_TYPE: inhibition at 10 µM

{"COMPOUND_STRUCTURE": "Cc1ccc(-n2c3ccccc3c3ccc4ccccc4c32)cc1", "MEASUREMENT": "0%"}
{"COMPOUND_STRUCTURE": "CCCCn1c2ccccc2c2ccccc21", "MEASUREMENT": "0%"}
{"COMPOUND_STRUCTURE": "Clc1ccc(-n2c3ccccc3c3ccccc32)cc1", "MEASUREMENT": "0%"}
{"COMPOUND_STRUCTURE": "CCc1ccc(S(=O)(=O)n2c3ccccc3c3ccccc32)cc1", "MEASUREMENT": "3%"}

###

test system: HT-22; assay: Neuroprotective activity against mouse HT22 cells assessed as inhibition of glutamate-induced cell injury pretreated at 3 uM for 30 mins measured after 24 hrs by MTT assay; type: functional
molecules and their reported inhibition at 3 µM

{"COMPOUND_STRUCTURE": "c1ccc2c(c1)c1ccccc1n2C1CCCCC1", "TARGET_OR_TEST_SYSTEM": "HT-22", "inhibition at 3 µM / %": 3}
{"COMPOUND_STRUCTURE": "Cc1ccc(-n2c3ccccc3c3ccccc32)nc1", "TARGET_OR_TEST_SYSTEM": "HT-22", "inhibition at 3 µM / %": 0}
{"COMPOUND_STRUCTURE": "Clc1ccc(-n2c3ccccc3c3ccccc32)cc1", "TARGET_OR_TEST_SYSTEM": "HT-22", "inhibition at 3 µM / %": 0}
{"COMPOUND_STRUCTURE": "Cc1ccc(-n2c3ccccc3c3ccccc32)cc1", "TARGET_OR_TEST_SYSTEM": "HT-22", "inhibition at 3 µM / %": 0}
